pKd: −log10 of the molar value.
Let's go through some recorded pKd values for UniProt P13631 together.
Sequence (P13631 whole entry): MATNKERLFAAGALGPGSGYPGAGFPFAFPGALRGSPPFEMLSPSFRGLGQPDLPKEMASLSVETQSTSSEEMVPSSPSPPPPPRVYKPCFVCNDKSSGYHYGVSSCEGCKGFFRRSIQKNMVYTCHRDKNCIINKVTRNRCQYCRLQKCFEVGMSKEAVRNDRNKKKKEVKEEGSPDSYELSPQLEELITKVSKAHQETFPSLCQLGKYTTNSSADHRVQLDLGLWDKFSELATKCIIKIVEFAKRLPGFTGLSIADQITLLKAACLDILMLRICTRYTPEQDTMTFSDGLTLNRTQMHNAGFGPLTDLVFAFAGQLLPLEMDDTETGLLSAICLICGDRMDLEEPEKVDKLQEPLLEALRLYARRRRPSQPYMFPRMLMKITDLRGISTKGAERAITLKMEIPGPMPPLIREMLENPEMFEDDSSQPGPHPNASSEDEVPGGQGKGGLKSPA
metric: pKd

[I] CCCCCOc1c(C(C)(C)C)cc(/C(C)=C/C=C/C(C)=C/C(=O)O)cc1C(C)(C)C
[II] CCCOc1c(C(C)(C)C)cc(/C(C)=C/C=C/C(C)=C/C(=O)O)cc1C(C)(C)C
[III] COc1c(C(C)(C)C)cc(/C(C)=C/C=C/C(C)=C/C(=O)O)cc1C(C)(C)C [A, reference compound]
With the 3 compounds above, produce a list ordered by ascending pKd. API: response body holds the labels in the requested order.
I, II, III
